Each record here notes measured melting point.

As a guide, the following entries are already answered.
molecule	property-name	observed-value
CC(CS)C(=O)N1c2ccccc2CCC1C(=O)O (stereo unspecified)	melting point	98 to 101 °C
CCOC(=O)C(C)(C)Sc1ccc(O)cc1	melting point	68 to 69 °C
Cc1nccn1-c1cccc(C2=Nc3cc(O)c(-c4ccc(F)cc4)cc3NC(=O)C2)c1	melting point	260 °C

Q: Look up melting point for this molecule: CC(=Cc1cc(Cl)ccc1O)[N+](=O)[O-]
Ans: 104 to 106 °C

Q: Report melting point for COc1ccc2oc3ccc(I)cc3c2c1C(=O)Nc1cccnc1 please.
Ans: 286 to 287 °C

Q: Using the record for CCc1nc2sc(S(N)(=O)=O)cc2c(=O)n1-c1ccccc1Cl , report its melting point.
Ans: 253 °C

This collection of values is drawn from a melting point compilation (Tetko et al.; mined from patent text by program, amines drawn as free bases though some values may be those of a salt).
